Value source: patent US20240301062A1

Molecular target: T1, human claudin 6 (CLDN6) (human, UniProt P56747 1-220)
T1 construct: also called human CLDN6; hCLDN6
T1 sequence: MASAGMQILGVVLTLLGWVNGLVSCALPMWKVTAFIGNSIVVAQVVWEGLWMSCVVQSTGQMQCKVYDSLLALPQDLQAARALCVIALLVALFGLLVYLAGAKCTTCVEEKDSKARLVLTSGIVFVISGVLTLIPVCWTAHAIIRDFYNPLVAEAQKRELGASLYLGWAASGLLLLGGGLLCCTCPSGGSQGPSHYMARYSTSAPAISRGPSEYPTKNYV
Assay: FACS, HEK293T/human CLDN6 cells
Label fulfilled when Emax ratio to BG87P >= 0.7 ratio; otherwise not fulfilled.

binder="BG87P-m2 (antibody, V domains shown, PTM removal variant of chBG87P; constant regions not restated (parent: human IgG1/kappa)) VH: QIQLQQSGPELVKPGASVKISCKASGYSFTDYHINWVKQRPGQGLEWIGWIYPGSGYTKYNEKFKVKATLTVDTSSSTAYMHLTSLTSEDSAVYFCARSGIYHYVSSYYFQHWGQGTTLTVSS VL: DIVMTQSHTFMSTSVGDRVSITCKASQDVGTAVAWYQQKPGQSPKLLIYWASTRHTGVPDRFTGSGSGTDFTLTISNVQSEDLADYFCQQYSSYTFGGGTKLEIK" category_label=fulfilled
binder="BG87P-Bz2 (antibody, V domains shown) VH: QIQLVQSGAEVKKPGASVKVSCKASGYTFTDYHINWVRQAPGQRLEWMGWIYPGSGYTKYNEKFKVRVTLTVDTSASTAYMELSSLRSEDTAVYFCARSGIYHYVSSYYFDHWGKGTTVTVSS VL: DIQMTQSPSTLSASVGDRVTITCKASQDVGTAVAWYQQKPGKSPKLLIYWASTRHTGVPSRFSGSGSGTEFTLTISSVQPDDFATYFCQQYSSYTFGGGTKVEIK" category_label="not fulfilled"
binder="BG87P-26 (antibody, V domains shown) VH: QIQLVQSGAEVKKPGASVKVSCKASGYSFTDYHINWVRQAPGQRLEWMGWIYPGSGYTKYNEKFKGRVTITRDTSASTAYMELSSLRSEDTAVYFCARSGIYHYVSSYYFDHWGKGTTVTVSS VL: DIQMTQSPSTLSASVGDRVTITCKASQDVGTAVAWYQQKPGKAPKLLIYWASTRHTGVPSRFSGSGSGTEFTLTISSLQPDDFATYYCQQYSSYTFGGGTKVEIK" category_label=fulfilled
binder="BG87P-Bz4 (antibody, V domains shown) VH: QIQLVQSGAEVKKPGASVKVSCKASGYSFTDYHINWVRQAPGQRLEWMGWIYPGSGYTKYNEKFKVRVTLTRDTSASTAYMELSSLRSEDTAVYFCARSGIYHYVSSYYFDHWGKGTTVTVSS VL: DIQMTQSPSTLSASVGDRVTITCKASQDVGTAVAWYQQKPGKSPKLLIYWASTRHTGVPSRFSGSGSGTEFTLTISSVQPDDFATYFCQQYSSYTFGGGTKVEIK" category_label="not fulfilled"
binder="BG87P-Bz1 (antibody, V domains shown) VH: QVQLVQSGAEVKKPGASVKVSCKASGYSFTDYHINWVRQAPGQRLEWMGWIYPGSGYTKYNEKFKVRVTLTVDTSASTAYMELSSLRSEDTAVYFCARSGIYHYVSSYYFDHWGKGTTVTVSS VL: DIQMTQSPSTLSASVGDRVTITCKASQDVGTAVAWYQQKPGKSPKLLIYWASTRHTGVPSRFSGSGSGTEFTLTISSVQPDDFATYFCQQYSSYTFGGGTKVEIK" category_label="not fulfilled"
binder="BG87P-z0 (antibody, V domains shown) VH: QVQLVQSGAEVKKPGASVKVSCKASGYTFTDYHINWVRQAPGQRLEWMGWIYPGSGYTKYNEKFKVRVTITRDTSASTAYMELSSLRSEDTAVYYCARSGIYHYVSSYYFDHWGKGTTVTVSS VL: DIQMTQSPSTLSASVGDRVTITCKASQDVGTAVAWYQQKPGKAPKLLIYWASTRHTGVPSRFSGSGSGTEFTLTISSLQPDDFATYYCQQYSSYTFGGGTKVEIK" category_label="not fulfilled"
binder="BG87P-m3 (antibody, V domains shown, PTM removal variant of chBG87P (VH V65G); constant regions not restated (parent: human IgG1/kappa)) VH: QIQLQQSGPELVKPGASVKISCKASGYSFTDYHINWVKQRPGQGLEWIGWIYPGSGYTKYNEKFKGKATLTVDTSSSTAYMHLTSLTSEDSAVYFCARSGIYHYVSSYYFDHWGQGTTLTVSS VL: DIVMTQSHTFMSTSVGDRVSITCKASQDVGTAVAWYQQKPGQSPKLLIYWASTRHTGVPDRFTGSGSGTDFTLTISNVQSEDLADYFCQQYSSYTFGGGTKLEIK" category_label=fulfilled
binder="BG87P-m4 (antibody, V domains shown, Variant of chBG87P with H33A; constant regions not restated (parent: human IgG1/kappa)) VH: QIQLQQSGPELVKPGASVKISCKASGYSFTDYAINWVKQRPGQGLEWIGWIYPGSGYTKYNEKFKVKATLTVDTSSSTAYMHLTSLTSEDSAVYFCARSGIYHYVSSYYFDHWGQGTTLTVSS VL: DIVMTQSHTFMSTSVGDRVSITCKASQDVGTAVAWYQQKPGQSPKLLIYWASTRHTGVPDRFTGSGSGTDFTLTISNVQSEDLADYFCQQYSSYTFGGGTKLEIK" category_label=fulfilled
